molecular target: Ubiquitin carboxyl-terminal hydrolase 17-like protein 5 (Homo sapiens); assay: inhibitors of human USP17 deubiquitinase (AID 1645855); details: purified USP17, Ub-rhodamine cleavage fluorescence, 3 h; at 50 µM
In all, about 47,000 compounds went through this assay and about 3,100 (6.6%) were called active. Cut-off read from the data, not from the text of the source: active = inhibition above about 30%; inactive = the rest. This is one part of a sample in which actives are shown more often than they occur.
Returns: one label drawn from active, inactive

Record excerpt, results attached:
                                   compound  label_class
0  O=C(CC(NCc1cccnc1)C(=O)O)Nc1ccccc1 (centres undefined)     inactive
1  O=C(Cc1nnc2c(-c3nc(C4CC4)no3)cccn12)Nc1ccccc1       active
2  Cc1ccc(C(=O)N(Cc2cc(=O)[nH]c3ccccc23)C(C)C)cc1F     inactive

Alright, here's another compound for you.
Please let me know the test result on file for CCn1c(CC(=O)Nc2ccccc2)nnc1SCC(=O)N1CCOCC1 .
inactive
